System: Odoribacter splanchnicus
ASSAY DETAILS: growth AUC relative to DMSO control (median of replicates) (fraction); higher = more growth (less inhibition), active = hit call of the paper
PARTICULARS: 20 µM; 24 h
PROPERTY NAME: growth AUC

>>> recorded_result("CC(C)C1(C)N=C(c2nc3ccccc3cc2C(=O)O)NC1=O (stereo not given)")
0.908
>>> recorded_result("O=NN(CCO)CCO")
1.13
>>> recorded_result("CCCOC(=O)c1ccccc1C(=O)OCCC")
0.698
>>> recorded_result("CC(C)(C)C(O)C(Cc1ccc(Cl)cc1Cl)n1cncn1 (mixture of isomers)")
0.989
>>> recorded_result("CCOC(=O)/C=C(C)/C=C/C[C@@H](C)CCCC(C)C")
0.954
>>> recorded_result("CCOP(=S)(OCC)Oc1ccc(=O)n(-c2ccccc2)n1")
0.986
>>> recorded_result("CC(C)OC(=O)C(O)(c1ccc(Br)cc1)c1ccc(Br)cc1")
1.05
>>> recorded_result("CC(COc1ccc(Oc2ccccc2)cc1)Oc1ccccn1 (stereo not given)")
1.03
>>> recorded_result("COCc1c(F)c(F)c(COC(=O)[C@@H]2[C@@H](C=C(Cl)Cl)C2(C)C)c(F)c1F")
1.03
>>> recorded_result("CO/N=C(/C1=NOCCO1)c1ccccc1Oc1ncnc(Oc2ccccc2Cl)c1F")
0.974

----------
Tested on: Fusobacterium nucleatum subsp. animalis
ASSAY DETAILS: growth AUC relative to DMSO control (median of replicates) (fraction); higher = more growth (less inhibition), active = hit call of the paper
PARTICULARS: 20 µM; 24 h
In this section, each of the compounds is paired with its reported growth AUC.
PROPERTY NAME: growth AUC

>>> recorded_result("COCCN(C(=O)CCl)c1c(C)cccc1C")
0.939
>>> recorded_result("N#Cc1nn(-c2c(Cl)cc(C(F)(F)F)cc2Cl)c(N)c1S(=O)(=O)C(F)(F)F")
1.01
>>> recorded_result("C=CC(N)=O")
1.02
>>> recorded_result("COC(=O)Nc1nc2ccccc2[nH]1")
1.03
>>> recorded_result("NC(=S)c1c(Cl)cccc1Cl")
0.822
>>> recorded_result("Oc1ccc(Cl)cc1")
0.941
>>> recorded_result("CC(C)=CC1C(C(=O)OCc2cccc(Oc3ccccc3)c2)C1(C)C (mixture of isomers)")
1.11

----------
Tested on: Fusobacterium nucleatum subsp. animalis
ASSAY DETAILS: growth AUC relative to DMSO control (median of replicates) (fraction); higher = more growth (less inhibition), active = hit call of the paper;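 active = AUC reduced over 20% with Padj below 0.05 in at least 2 of 3 replicates; inactive = otherwise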
PARTICULARS: 20 µM; 24 h
Possible outcomes: true = active, false = inactive

>>> label_value("COc1nc(NC(C)C)nc(NC(C)C)n1")
"false"
>>> label_value("CCN(C(=O)n1nnn(-c2ccccc2Cl)c1=O)C1CCCCC1")
"false"
>>> label_value("Cc1cc(C(C#N)c2ccc(Cl)cc2)c(Cl)cc1NC(=O)c1cc(I)cc(I)c1O (stereo unspecified)")
"true"
>>> label_value("CS/C(C)=N/OC(=O)N(C)SN(C)C(=O)O/N=C(\\C)SC")
"false"
>>> label_value("Cc1cc(C)nc(NC(=O)NS(=O)(=O)c2ccccc2C(=O)OC2COC2)n1")
"false"
>>> label_value("C=CC1(C)OC(=O)N(c2cc(Cl)cc(Cl)c2)C1=O (stereo unspecified)")
"false"
